Target: T1, GB1-AF9 (497-568) (human) (UniProt P42568)
T1 sequence: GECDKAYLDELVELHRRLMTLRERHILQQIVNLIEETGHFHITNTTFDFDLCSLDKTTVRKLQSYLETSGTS
Experiment: FP saturation; 5 nM labeled peptide titrated with GB1-AF9
Where no end group is shown, it is not given here. fluorescein = fluorescein label, coupled through a lysine and two β-alanine spacer
Measurement Type: Kd (nM)

[[record]]
binder = "LPISIPLSTV-NH2 (not fully specified (N-terminus)) [N-Flu-DOT1L, fluorescein-labeled DOT1L 10-mer peptide (N-terminal label)]"
measurement_type = "Kd"
result_value = 95

[[record]]
binder = "Ac-LPISIPLSTV-fluorescein (also: C-terminal fluorescein label, attachment not given here) [C-Flu-DOT1L, fluorescently labeled DOT1L-10 mer peptide (C-terminal label)]"
measurement_type = "Kd"
result_value = 127

